# method_notes: antimalarial activity against Dd2 strain (AID 2302)
# applied_conditions: P. falciparum Dd2 in RBCs, LDH growth readout, 72 h; at 2 µM
Activity calls are given as the source filed them.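 How the source made its calls: active means growth inhibition above 50% at the single 2 µM test dose, taken to imply half-maximal potency below 2 µM; inactive means the rest.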
Permitted responses: active, inactive

Cc1ccc(NC(=O)c2ccc3nccnc3c2)cc1OC1CCN(Cc2ccc(F)cc2)CC1 = inactive
COc1ccc(-c2cc(Nc3nc(-c4cccc(Cl)c4)nc4ccccc34)ccn2)cc1 = inactive
O=C(NC(Cc1ccccc1)C(=O)O)c1cc(=O)c2ccccc2o1 (centres undefined) = inactive
CC(=O)N1N=C(c2ccccc2)Sc2c1nc(-c1ccc(Cl)cc1)n2C(C)=O = inactive
O=C(N[C@@H](CC1CCCCC1)C(=O)NCCc1ccc(Cl)c(Cl)c1)c1ccc(O)c(-c2ccc(Cl)c(Cl)c2)c1 = active
O=C(/C=C/c1ccc(F)cc1)NC1CCC(CCN2CCc3ccccc3CC2)CC1 (centres undefined) = inactive

Query: Recorded call for CC(C)(C)c1cc([N+](=O)[O-])cc(C(=O)Nc2ccccc2C(F)(F)F)c1O ?
Reply: active

Query: Recorded call for O=C(Nc1cccc(-c2csc(-c3nc4ccccc4[nH]3)c2)c1)c1ccncc1 ?
Reply: active

Query: Recorded call for O=S(=O)(/C=C/c1ccccc1)N(Cc1ccc(-c2ccc(CNCCc3ccccc3)cc2)cc1)CC1CCCCN1 (centres undefined) ?
Reply: active
